The values you see were collected from ChEMBL document CHEMBL5126643.

assay: Half life in Wistar rat brain at 10 mg/kg, po measured up to 24 hrs by LC-MS/MS analysis; type: ADME, organism-based
PROPERTY NAME: half-life (h)
Numbers only, in h.

query: Fill in half-life for record COc1ccc(NC(=O)C(=O)NCC(c2ccccc2)N2CCN(C)CC2)cc1 (stereo unspecified)
result: 1.81

----------
assay: Tmax in Wistar rat brain at 10 mg/kg, ip measured up to 24 hrs by LC-MS/MS analysis; assay type: ADME, organism-based
PROPERTY NAME: Tmax (min)
Give bare numbers, in min.

* COc1ccc(NC(=O)C(=O)N2CCN(c3ccccc3)CC2)cc1 | 30

As a next step, examine the molecule that follows.
query: Fill in Tmax for record COc1ccc(NC(=O)C(=O)NCC(c2ccccc2)N2CCN(C)CC2)cc1 (configuration not stated)
result: 30
